ASSAY TARGET: Tyrosine-protein kinase CSK (Homo sapiens) (UniProt P41240);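 further: value given is the averaged percent inhibition of CSK kinase activity, from the GSK PKIS kinase inhibitor set screening panel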
Sequence (P41240 2-450 limits assumed): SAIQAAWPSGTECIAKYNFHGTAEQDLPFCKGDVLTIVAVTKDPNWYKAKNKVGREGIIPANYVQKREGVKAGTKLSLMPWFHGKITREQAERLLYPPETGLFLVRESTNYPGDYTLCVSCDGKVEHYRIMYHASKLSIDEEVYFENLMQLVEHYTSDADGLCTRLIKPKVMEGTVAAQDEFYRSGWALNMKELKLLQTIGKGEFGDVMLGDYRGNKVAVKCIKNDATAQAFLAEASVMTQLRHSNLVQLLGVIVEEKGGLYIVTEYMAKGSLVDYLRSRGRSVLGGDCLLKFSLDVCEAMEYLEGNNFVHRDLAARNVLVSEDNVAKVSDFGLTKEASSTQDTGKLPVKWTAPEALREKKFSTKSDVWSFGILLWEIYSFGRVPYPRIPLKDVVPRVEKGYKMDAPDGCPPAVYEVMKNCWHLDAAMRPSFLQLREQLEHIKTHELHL
RUN PARAMETERS: at 0.1 µM
Items are presented alongside their recorded inhibition.

| LINE NOTATION | inhibition, % |
| --- | --- |
| C[C@@H](Oc1cc(-n2cnc3ccc(OCC4CCN(C)CC4)cc32)sc1C(N)=O)c1ccccc1Cl | 5.15 |
| NC(=O)c1cc(-c2ccncc2)cc(-c2ccccc2)c1N | 5.98 |
| Fc1ccc(-c2ncn(CCCN3CCOCC3)c2-c2ccncc2)cc1 | -2.06 |
| Fc1ccc(-c2ncn(C3CCNCC3)c2-c2ccnc(Oc3ccc(Oc4ccccc4)cc3)n2)cc1 | 0.47 |
| c1ccc(Oc2ccc(Nc3ncc(-c4ccccc4)o3)cc2)cc1 | 4.92 |
| COc1cc2ncn(-c3cc(OCCc4ccccc4)c(C(N)=O)s3)c2cc1OC | 2.97 |
| COC(=O)Nc1nc2ccc(Sc3ccc(NC(=O)Nc4cc(C(F)(F)F)ccc4F)cc3)cc2[nH]1 | 1.7 |
| O=C1Nc2ccccc2/C1=C/Nc1ccc(-n2cncn2)cc1 | 3.03 |
| COc1cc(N2CCN(C(C)C)CC2)ccc1Nc1nc(Nc2ccc(F)cc2C(=O)NC[C@@H](O)CO)c2cc[nH]c2n1 | 5.74 |
| Fc1ccc(-c2nc3n(c2-c2ccncc2)CCS3)cc1 | 7.37 |
